Tested on: SRD5A2 (gene 6716)
Method Summary: CCTE_Deisenroth_5AR_NBTE_ratio: CCTE's 5alpha-reductase NanoBRET Target Engagement Assay - Ratio, Deisenroth Lab (AID 2284322)
Cond: actives raise or lower the signal
Active and inactive are the calls of the source. The calls were made as follows: active = hit-call score of the fitted dose curve at least 0.9, where 1 is the maximum; inactive = score below 0.9.
Overview of recorded AC50 for various compounds
Property Measured: AC50

- Compound: "CCC(C)c1cc([N+](=O)[O-])cc([N+](=O)[O-])c1O (centres undefined)"
  Property Measured: "AC50"
  Reported: "53.3 µM (active)"
- Compound: "CCCCCCCCCC[N+](C)(C)CCCCCCCCCC"
  Property Measured: "AC50"
  Reported: "10.3 µM (active)"
- Compound: "Cc1cc(-c2ccc(N)c(C)c2)ccc1N"
  Property Measured: "AC50"
  Reported: "50 µM (active)"

---

Overview of recorded AC50 for various compounds
Tested on: TTR (gene 7276)
Method Summary: CCTE_GLTED_hTTR_0.125uM: CCTE's human Transthyretin (hTTR) Inhibition Assay, with 0.125uM TTR, Great Lakes Toxicology and Ecology Division (GLTED) Lab (AID 2284431);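 also: hits lower the fluorescence signal relative to DMSO baseline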
Calls of active or inactive are those of the source. The calls were made as follows: active = hit-call score of the fitted dose curve at least 0.9, where 1 is the maximum; inactive = score below 0.9.
Property Measured: AC50

- Structure: "CCC(C)(c1ccc(O)cc1)c1ccc(O)cc1"
  Reported: "9260 nM (active)"
- Structure: "O=C(O)C(F)(F)C(F)(F)C(F)(F)C(F)(F)C(F)(F)C(F)(F)C(F)(F)C(F)(F)C(F)(F)F"
  Reported: "646 nM (active)"
- Structure: "Cc1cc(O)ccc1Cl"
  Reported: "20500 nM (active)"
- Structure: "O=C(O)C(F)(F)C(F)(F)C(F)(F)C(F)(F)C(F)(F)F"
  Reported: "1920 nM (active)"
- Structure: "CC(c1ccc(O)cc1)(c1ccc(O)cc1)c1ccc(O)cc1"
  Reported: "1480 nM (active)"
- Structure: "O=S(=O)(O)C(F)(F)C(F)(F)C(F)(F)C(F)(F)C(F)(F)C(F)(F)F"
  Reported: "85.6 nM (active)"
- Structure: "CCCCCCCCCc1ccc(O)cc1"
  Reported: "3030 nM (active)"

---

Method Summary: Tanguay_ZF_120hpf_MORT_legacy: (Legacy) Oregon State University Tanguay Lab 120 Hour Post-fertilization zebrafish Assay for Mortality (AID 2283633)
The source made the active and inactive calls. Rule for the calls: active = hit-call score of the fitted dose curve at least 0.9, where 1 is the maximum; inconclusive = response in the unintended direction; inactive = score below 0.9.
Possible outcomes: active, inactive

- Molecule: "CCCCCCOC(=O)c1ccccc1C(=O)OCCCCCC"
  Class Name: "inactive"
- Molecule: "CC1=C2C[C@H]3[C@@H](CC=C4C[C@@H](O)CC[C@@]43C)[C@@H]2CC[C@]12O[C@@H]1C[C@H](C)CN[C@H]1[C@H]2C"
  Class Name: "inactive"
- Molecule: "O=C(N[C@H]1CN2CCC1CC2)c1cc2ccoc2cn1"
  Class Name: "inactive"
- Molecule: "ClC1=C(Cl)[C@]2(Cl)[C@@H]3[C@@H]4C[C@@H]([C@H]5O[C@@H]45)[C@@H]3[C@@]1(Cl)C2(Cl)Cl"
  Class Name: "inactive"
- Molecule: "CCCN(CCC)N=O"
  Class Name: "inactive"
- Molecule: "CC(C)C(=O)OCC(C)(C)C(OC(=O)C(C)C)C(C)C (stereo unspecified)"
  Class Name: "active"
- Molecule: "CCNc1nc(NC(C)C)nc(SC)n1"
  Class Name: "inactive"
- Molecule: "CCCCCCCCOC(=O)c1ccccc1C(=O)OCCCCCCCC"
  Class Name: "inactive"
- Molecule: "C[C@]12CCC(=O)C=C1CC[C@@H]1[C@@H]2CC[C@]2(C)C(=O)CC[C@@H]12"
  Class Name: "inactive"
- Molecule: "Cc1cc(-c2ccc(N)c(C)c2)ccc1N"
  Class Name: "inactive"
- Molecule: "O=NN(c1ccccc1)c1ccccc1"
  Class Name: "inactive"

Entry source: PubChem BioAssay (EPA / NIEHS)
